Reference for the values: PubChem BioAssay AID1159580

Reported normalized growth is given for each of the following compounds.
Experiment: chemical genetic growth profiling, strain panel (AID 1159580);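 also: tested at 20 µM; growth read once vehicle control cultures reached saturation at 30 °C; 1 = growth at the plate median or of vehicle wells; lower values mean less growth of the strain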
Conditions: S. cerevisiae deletion strains, growth OD, locus YML032C, strain rad52, hits give low values
The whole screen tested about 5,500 compounds, of which about 2,000 (36%) were called active. About 18% were inconclusive and are not listed. This is one part of the list.
measure_name: normalized growth

- compound: "C=C1C(=O)O[C@@H]2C3O[C@]3(C)CC/C=C(\\C)CC[C@@H]12 (some centres not stated)"
  numeric_value: 0.87
- compound: "Cc1cc(NC(=O)C2=C(O)c3ccccc3S(=O)(=O)N2C)no1"
  numeric_value: 0.985
- compound: "CC(C)NNC(=O)c1ccncc1"
  numeric_value: 1.02
- compound: "Cn1c(=O)c2[nH]cnc2n(C)c1=O"
  numeric_value: 0.971
- compound: "O=C(O)CN1C(=O)c2cccc3cccc(c23)C1=O"
  numeric_value: 1
- compound: "CC(C)[C@@H]1CC[C@@H](C)C[C@H]1O"
  numeric_value: 1
- compound: "O=C1CC2OCC=C3CN4CC[C@]56c7ccccc7N1C5[C@H]2[C@H]3CC46 (some centres not stated)"
  numeric_value: 0.995
- compound: "C=C1C(=O)OC2CC1C(OC(C)=O)C/C(C)=C/CC/C(C)=C/CC[C@]2(C)O (some centres not stated)"
  numeric_value: 1.01
- compound: "NC(N)=NS(=O)(=O)c1ccc(N)cc1"
  numeric_value: 0.987
- compound: "O=C1OC(c2ccc(O)cc2)(c2ccc(O)cc2)c2ccccc21"
  numeric_value: 0.956
- compound: "CC1OC1P(=O)(O)O (configuration not stated)"
  numeric_value: 0.997
- compound: "CN1C(C(=O)Nc2ccccn2)=C(O)c2ccccc2S1(=O)=O"
  numeric_value: 0.954

====

Assay: chemical genetic growth profiling, strain panel (AID 1159580);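 also: tested at 20 µM; growth read once vehicle control cultures reached saturation at 30 °C; 1 = growth at the plate median or of vehicle wells; lower values mean less growth of the strain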
Details: S. cerevisiae deletion strains, growth OD, locus YBR021W, strain FUR4
Among all 5,500 compounds or so, about 2,000 (36%) were called active. Inconclusive results (about 18%) are left out. Rule as the data show it: active = normalized growth mostly below about 0.91 (no sharp cut-off); inconclusive = no clear call, values can overlap the other calls; inactive = mostly above about 0.92. This is one part of the list.
Outcome codes: active, inactive

- molecule: "CO/N=C(\\C(=O)NC1C(=O)N2C(C(=O)O)=C(COC(N)=O)CSC12)c1ccco1 (configuration not stated)"
  qualitative_label: "active"
- molecule: "O=S1OCC2C(CO1)C1(Cl)C(Cl)=C(Cl)C2(Cl)C1(Cl)Cl (configuration not stated)"
  qualitative_label: "inactive"
- molecule: "CC(C)C(C)/C=C/C(C)C1CCC2C3=CC=C4CC(O)CCC4(C)C3CCC21C (configuration not stated)"
  qualitative_label: "active"
- molecule: "CCOC(=O)[C@H](CCc1ccccc1)N[C@@H](C)C(=O)N1[C@H](C(=O)O)C[C@@H]2CCC[C@@H]21"
  qualitative_label: "inactive"
- molecule: "CCCCNc1ccc(C(=O)OCCN(C)C)cc1"
  qualitative_label: "inactive"
- molecule: "COc1ccc2c(c1)O[C@H]1c3ccc(OC)cc3OC[C@@H]21"
  qualitative_label: "inactive"
- molecule: "COC(=O)C(C)c1ccc(C(=O)c2cccs2)cc1 (configuration not stated)"
  qualitative_label: "inactive"
- molecule: "CCCCN1CCCCC1C(=O)Nc1c(C)cccc1C (configuration not stated)"
  qualitative_label: "inactive"
- molecule: "COc1ccc([C@H]2Oc3cc(OC)cc(OC)c3C[C@H]2O)cc1"
  qualitative_label: "inactive"
- molecule: "CCCCCCOc1ccccc1C(N)=O"
  qualitative_label: "active"
- molecule: "CC(=O)OC1CCC2(C)C(=CC=C3C2CCC2(C)C3CCC2C(C)/C=C/C(C)C(C)C)C1(C)C (configuration not stated)"
  qualitative_label: "inactive"
- molecule: "Oc1ccc2c(c1)OCC1c3cc4c(cc3OC21)OCO4 (configuration not stated)"
  qualitative_label: "inactive"
- molecule: "NC(CO)C(=O)NNCc1ccc(O)c(O)c1O (configuration not stated)"
  qualitative_label: "inactive"
- molecule: "COc1ccc(CCN2CCC(Nc3nc4ccccc4n3Cc3ccc(F)cc3)CC2)cc1"
  qualitative_label: "active"
- molecule: "CCCCOC(=O)c1ccccc1C(=O)OCCCC"
  qualitative_label: "inactive"
- molecule: "CCCCN(CCCC)CCCOC(=O)c1ccc(N)cc1"
  qualitative_label: "inactive"
- molecule: "CO/N=C(\\C(=O)N[C@@H]1C(=O)N2C(C(=O)O)=C(COC(C)=O)CS[C@H]12)c1csc(N)n1"
  qualitative_label: "inactive"
- molecule: "C[N+]1(C)C2CC(OC(=O)[C@@H](CO)c3ccccc3)CC1C1OC12 (some centres not stated)"
  qualitative_label: "inactive"
- molecule: "CO/N=C(\\C(=O)N[C@@H]1C(=O)N2C(C(=O)O)=C(CSc3nc(=O)c(O)nn3C)CS[C@H]12)c1csc(N)n1"
  qualitative_label: "inactive"
- molecule: "CC(C)C(C)/C=C/C(C)[C@H]1CCC2C3=CCC4CC(=O)CC[C@]4(C)C3CC[C@@]21C (some centres not stated)"
  qualitative_label: "inactive"
- molecule: "CC(=O)N[C@@H](CS)C(=O)O"
  qualitative_label: "inactive"
- molecule: "NC(N)=NS(=O)(=O)c1ccc(N)cc1"
  qualitative_label: "inactive"

====

Reported normalized growth is given for each of the following molecules.
Assay: chemical genetic growth profiling, strain panel (AID 1159580);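 also: tested at 20 µM; growth read once vehicle control cultures reached saturation at 30 °C; 1 = growth at the plate median or of vehicle wells; lower values mean less growth of the strain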
Conditions: S. cerevisiae deletion strains, growth OD, locus YKL085W, strain MDH1, hits give low values
In all, about 5,500 compounds went through this assay and about 2,000 (36%) were called active. Another 18% or so got no clear call; they are omitted. Some of the results follow.

- molecule: "C[N+]1(C)C2CC(OC(=O)[C@@H](CO)c3ccccc3)CC1C1OC12 (stereo not given in full)"
  normalized growth: 1.01
- molecule: "Nc1nc2ncc(=O)[nH]c2c(=O)[nH]1"
  normalized growth: 0.991
- molecule: "CO/N=C(\\C(=O)N[C@@H]1C(=O)N2C(C(=O)O)=C(CSc3nc(=O)c(O)nn3C)CS[C@H]12)c1csc(N)n1"
  normalized growth: 0.984
- molecule: "CC(C)C(C)/C=C/C(C)C1CCC2C3=CC=C4CC(O)CCC4(C)C3CCC21C (stereo not given)"
  normalized growth: 1
- molecule: "CCCCN1CCCCC1C(=O)Nc1c(C)cccc1C (stereo not given)"
  normalized growth: 1

====

Assay: chemical genetic growth profiling, strain panel (AID 1159580);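 also: tested at 20 µM; growth read once vehicle control cultures reached saturation at 30 °C; 1 = growth at the plate median or of vehicle wells; lower values mean less growth of the strain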
Settings: S. cerevisiae deletion strains, growth OD, locus YOR231W, strain MKK1
In all, about 5,500 compounds went through this assay and about 2,000 (36%) were called active. Another 18% or so got no clear call; they are omitted. Rule as the data show it: active = normalized growth mostly below about 0.91 (no sharp cut-off); inconclusive = no clear call, values can overlap the other calls; inactive = mostly above about 0.92. The list shows a part of the results.
Outcome codes: active, inactive

- compound: "Cc1c(C(=S)Nc2ccccc2)sc2ccccc12"
  qualitative_label: "inactive"
- compound: "COC(=O)C[C@H]1C(C)(C)C(=O)[C@@H]2CC3=C(CC[C@]4(C)C3=CC(=O)O[C@H]4c3ccoc3)[C@@]1(C)C2=O"
  qualitative_label: "inactive"
- compound: "OC(=Cc1nc2ccccc2nc1C=C(O)c1ccc(Cl)cc1)c1ccc(Cl)cc1"
  qualitative_label: "inactive"
- compound: "S=c1[nH]nc(Nc2ccc(I)cc2)s1"
  qualitative_label: "active"
- compound: "CC(C)NCC(O)COc1cccc2ccccc12 (stereo not drawn)"
  qualitative_label: "inactive"
- compound: "N#CC(C#N)=Cc1ccc(-c2ccccc2C(F)(F)F)o1"
  qualitative_label: "inactive"
- compound: "C=C1C(=O)O[C@@H]2C3O[C@]3(C)CC/C=C(\\C)CC[C@@H]12 (stereo partly drawn)"
  qualitative_label: "inactive"
- compound: "CO/N=C(\\C(=O)NC1C(=O)N2C(C(=O)O)=C(COC(N)=O)CSC12)c1ccco1 (stereo not drawn)"
  qualitative_label: "inactive"
- compound: "CO/N=C(\\C(=O)NC1C(=O)N2C(C(=O)OC(C)OC(C)=O)=C(COC(N)=O)CSC12)c1ccco1 (stereo not drawn)"
  qualitative_label: "inactive"
- compound: "CCCOc1ccc(C(=O)OCCN(CC)CC)cc1N"
  qualitative_label: "inactive"
- compound: "CO/N=C(\\C(=O)N[C@@H]1C(=O)N2C(C(=O)O)=C(COC(C)=O)CS[C@H]12)c1csc(N)n1"
  qualitative_label: "inactive"
- compound: "CCCC[C@@H](CC)COC(=O)c1ccccc1O"
  qualitative_label: "inactive"
- compound: "COc1c(OC)c2occc2c2oc(=O)ccc12"
  qualitative_label: "inactive"
- compound: "CCCCN(CCCC)CCCOC(=O)c1ccc(N)cc1"
  qualitative_label: "inactive"
- compound: "COc1cc(-c2coc3cc(OC)c(OC)c(OC)c3c2=O)cc(OC)c1OC"
  qualitative_label: "inactive"
- compound: "O=C1OC2(c3ccc(O)cc3Oc3cc(O)ccc32)c2ccccc21"
  qualitative_label: "inactive"
- compound: "O=C(/C=C/Sc1nc2ccccc2s1)c1ccc(Cl)cc1"
  qualitative_label: "inactive"
- compound: "COc1cc(-c2coc3cc(OCc4ccccc4)c(OC)c(O)c3c2=O)cc(O)c1OC"
  qualitative_label: "inactive"
- compound: "CC(C)NCC(O)c1cc(O)cc(O)c1 (stereo not drawn)"
  qualitative_label: "inactive"
- compound: "Nc1ccn(C2O[C@H](CO)[C@@H](O)[C@@H]2O)c(=O)n1 (stereo partly drawn)"
  qualitative_label: "inactive"
- compound: "O=C(Nc1ccc(OC(F)(F)F)cc1)N1CCN(c2nc(-c3ccccc3)ns2)CC1"
  qualitative_label: "inactive"
- compound: "O=c1cc(-c2ccccc2O)oc2cc(O)ccc12"
  qualitative_label: "inactive"
- compound: "CCCCNc1ccc(C(=O)OCCN(C)C)cc1"
  qualitative_label: "inactive"
